Reference for the values: a melting point compilation (Tetko et al.; mined from patent text by program, amines drawn as free bases though some values may be those of a salt)

measured property: melting point

Query: Look up melting point for this molecule: O=C(Nc1cccc(Br)c1)Oc1ccc2c(c1)CCCN2Cc1ccccc1
Response: 117 °C

Query: Find the recorded melting point belonging to CCC(=O)c1ccc(-c2ccccc2)cc1 and report it.
Response: 98 to 99 °C

Query: Tell me the measured melting point of CN(O)C(=O)NC1CCCc2sccc21 (stereo unspecified) , please.
Response: 98 to 102 °C

Query: Which melting point is listed for Cc1csc(C(=O)C(F)(F)F)n1 ?
Response: 77 to 81 °C

Query: Please look up its melting point: O=C(O)c1cc2c3cc(Br)c(Br)cc3n(Cc3ccccc3)c2s1
Response: 269 to 273 °C

Query: Item CCOC(=O)c1cc2c(s1)CCC2=O has what recorded melting point?
Response: 54 to 55 °C

Query: Please look up its melting point: O=Cc1ccccc1-c1ccc(CBr)cc1
Response: 63 to 66 °C

Query: I would be grateful if you could share the reported melting point for O=c1nc(Cl)cnn1-c1cc(Cl)cc(Cl)c1 .
Response: 148 to 149 °C

Query: Reported melting point for O=C(O)CC(C(=O)NC(CO)Cc1ccccc1)C1(c2ccc(-c3ccccc3)cc2)C=CNC1 (stereo unspecified) : what is it?
Response: 151 to 154 °C

Query: Quick one: melting point for CCC(=O)Nc1c([N+](=O)[O-])cnn1-c1ccc(Cl)c(Cl)c1Cl ?
Response: 79 to 81 °C

Query: # melting point lookup, item Cc1cn(N=Cc2cccnc2)c(=O)n1C
Response: 186 to 187 °C
